Listed here are compounds together with their documented melting point.

{"columns": ["COMPOUND", "RESULT"],
 "data": [
  ["COc1ccc2c(c1)C(c1ccccc1)C(=O)NCC2 (stereo not given)", "155 to 170 °C"]
]}

Consider O=C(Nc1cccnc1)N1CCN(c2nccc(-c3ccc(F)cc3)n2)CC1 . Its measured melting point is 233 to 234 °C

Consider O=C(CCl)Nc1ccc(OCc2nc3ccccc3s2)cc1 . Its measured melting point is 196 to 197 °C

Consider CCOC(=O)c1ncn2c1CN=C(c1ccccc1)c1cc(C#CC(C)(C)C)ccc1-2 . Its measured melting point is 155 to 156 °C

src = a melting point compilation (Tetko et al.; mined from patent text by program, amines drawn as free bases though some values may be those of a salt)
